# IC50, EGF-induced EGFR phosphorylation, A431 cells, In Cell Western annotations
# measuredTarget: EGFR on the surface of human tumour cells (A431, H292) (human, UniProt P00533 25-1210)
# methodSummary: cell-based or functional assay
Answer with a number only, understood to be in µM.

[[record]]
binder = "E105-GS10-I1 pegylated (designed binder, chain 1 pos 221: Cys carrying a maleimide-linked 40 kDa branched PEG, written C, lower row of the two named E105-GS10-I1 pegylated) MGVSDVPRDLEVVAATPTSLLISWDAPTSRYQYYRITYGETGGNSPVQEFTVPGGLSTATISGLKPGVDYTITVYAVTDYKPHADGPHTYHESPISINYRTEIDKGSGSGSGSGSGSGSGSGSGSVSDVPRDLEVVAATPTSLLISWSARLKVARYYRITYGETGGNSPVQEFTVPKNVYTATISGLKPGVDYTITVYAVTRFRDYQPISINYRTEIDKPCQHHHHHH"
valuereported = 0.061


Req: Give the measured IC50, EGF-induced EGFR phosphorylation, A431 cells, In Cell Western of E85-GS10-I1 pegylated (designed binder, Cys of the C-terminal Cys tail conjugated to 40 kDa branched PEG) E/I tandem 10Fn3 chain: MGVSDVPRDLEVVAATPTSLLISWTQGSTHYQYYRITYGETGGNSPVQEFTVPGMVYTATISGLKPGVDYTITVYAVTDYFDRSTHEYKYRTTPISINYRTEIDKGSGSGSGSGSGSGSGSGSGSVSDVPRDLEVVAATPTSLLISWSARLKVARYYRITYGETGGNSPVQEFTVPKNVYTATISGLKPGVDYTITVYAVTRFRDYQPISINYRTEIDKPCQHHHHHH .
Resp: 0.015

Req: Next binder up: E105-GS10-I1 pegylated (designed binder, Cys of the C-terminal Cys tail conjugated to 40 kDa branched PEG) E/I tandem 10Fn3 chain: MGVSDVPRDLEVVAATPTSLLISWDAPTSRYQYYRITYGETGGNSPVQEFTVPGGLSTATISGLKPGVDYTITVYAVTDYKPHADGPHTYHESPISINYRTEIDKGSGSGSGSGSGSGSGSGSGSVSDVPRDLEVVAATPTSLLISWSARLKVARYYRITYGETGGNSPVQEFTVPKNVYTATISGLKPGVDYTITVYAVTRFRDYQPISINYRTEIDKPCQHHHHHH
Resp: 0.056
